The measured values listed here are drawn from patent US20040023887A1.

molecular target: T1, soluble HIR ectodomain (sIR) (human, UniProt P06213-2 28-944, limits assumed); assay: FP competition, label FITC-RP9, sIR
T1 construct: extracellular domain
T1 sequence (P06213 other isoform, or with tags, fused parts or gaps limits assumed): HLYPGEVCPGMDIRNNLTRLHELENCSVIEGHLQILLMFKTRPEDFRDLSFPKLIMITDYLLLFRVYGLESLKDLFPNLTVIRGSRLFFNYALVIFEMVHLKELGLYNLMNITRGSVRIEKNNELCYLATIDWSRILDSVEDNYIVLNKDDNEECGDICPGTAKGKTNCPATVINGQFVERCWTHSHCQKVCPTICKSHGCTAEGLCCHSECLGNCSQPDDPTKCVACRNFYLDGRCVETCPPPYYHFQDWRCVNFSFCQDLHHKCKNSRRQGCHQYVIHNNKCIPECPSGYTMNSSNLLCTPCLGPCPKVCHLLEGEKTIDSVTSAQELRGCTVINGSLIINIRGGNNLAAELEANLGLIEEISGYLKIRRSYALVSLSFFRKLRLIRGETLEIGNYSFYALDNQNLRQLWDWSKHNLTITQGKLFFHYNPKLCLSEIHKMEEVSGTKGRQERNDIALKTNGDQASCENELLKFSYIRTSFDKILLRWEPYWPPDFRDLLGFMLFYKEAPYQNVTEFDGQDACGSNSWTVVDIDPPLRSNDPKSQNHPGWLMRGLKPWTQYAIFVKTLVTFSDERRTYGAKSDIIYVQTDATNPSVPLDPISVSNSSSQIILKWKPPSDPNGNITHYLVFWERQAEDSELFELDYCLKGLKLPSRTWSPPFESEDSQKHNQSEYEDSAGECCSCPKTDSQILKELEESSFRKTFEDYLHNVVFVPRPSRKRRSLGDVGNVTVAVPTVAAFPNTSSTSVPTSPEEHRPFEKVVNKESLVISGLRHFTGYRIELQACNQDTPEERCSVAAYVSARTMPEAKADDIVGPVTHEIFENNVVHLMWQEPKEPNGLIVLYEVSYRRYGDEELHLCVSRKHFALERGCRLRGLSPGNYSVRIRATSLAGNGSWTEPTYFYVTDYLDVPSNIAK
assayEndpoint: IC50 (nM)
Use nM as the unit, but write only the number.

Consider the binder GSLDESFYDWFERQLGKK (also called S371) [RP9] . State its measured IC50. 0.03
